# Test system: peroxidase
# ASSAY_INFO: Activity of the isolated peroxidase towards various hydrogen donors
# Assay type: biochemical, Coprinus cinereus IFO 30116
# CONDITION: relative values with that of phenol set at 100%; peroxidase of Coprinus cinereus IFO 30116
Catalogue of Strength of Action values
Supply the numeric figure in %, leaving out any unit text.

• Oc1cccc(O)c1 = 0
• COc1ccccc1O = 200
• COc1cc(-c2ccc(N)c(OC)c2)ccc1N = 5400
• Oc1ccccc1O = 460
• Oc1cccc2ccccc12 = 1200

Turning now to a further compound:
So what's the measured Strength of Action for this one? Oc1ccc(O)cc1 [Hydroquinone]
57

Entry source: patent EP0200565A2
